meta.source: patent US20230027059A1

System: human pluripotent stem cells
TEST PROTOCOL: 13-factor HD-DoE experiment, stage 1: 3-day effector treatment, gene expression modeled, with dynamic profile and factor criticality analysis
Type: cell-based
STATED CONDITIONS: stage 1 recipe, other four factors present; 600 with all five factors
ENDPOINT NAME: FOXA2 expression level in absence of the factor

COMPOUND: O=C(NOC[C@H](O)CO)c1ccc(F)c(F)c1Nc1ccc(I)cc1F [PD0325901]
TARGET OR TEST SYSTEM: human pluripotent stem cells
RESULT: 700

====

System: human pluripotent stem cells
TEST PROTOCOL: 13-factor HD-DoE experiment, stage 1: 3-day effector treatment, gene expression modeled, with dynamic profile and factor criticality analysis
Format: cell-based
STATED CONDITIONS: stage 1 recipe, other four factors present; 12000 with all five factors
Experimental: This example utilizes a method of High-Dimensional Design of Experiments (HD-DoE), as previously described in Bukys et al. (2020) Iscience 23:101346. […] In the stage 1 recipe, each of the five finalized factors were removed while the other four factors were present and the expression levels of OTX2, DMBX1, FOXA2 and LMX1A was assessed compared to the levels in the presence of all five factors (FIGS. 11A-B). […]
ENDPOINT NAME: OTX2 expression level in absence of the factor

COMPOUND: NC1(c2ccc(-c3nc4ccn5c(=O)[nH]nc5c4cc3-c3ccccc3)cc2)CCC1 [MK2206]
TARGET OR TEST SYSTEM: human pluripotent stem cells
RESULT: 9500
